System: Human immunodeficiency virus 1
Assay: Antiviral activity against HIV1 RF infected in human CEM-SS cells
Assay type: functional, organism-based
Conditions: Human immunodeficiency virus 1, RF
Measure: EC50 (µM)
Numbers only, in µM.

Worked examples, 2 molecules total:
- Smiles str: "COc1cc(C)cc2c(-c3c(O)cc(O)c4c3C[C@@H](C)N[C@@H]4C)cc(-c3cc(-c4c(O)cc(O)c5c4C[C@@H](C)N[C@@H]5C)c4cc(C)cc(OC)c4c3O)c(O)c12"
  EC50 [µM]: 6
- Smiles str: "COc1cc(O)c(-c2cc(-c3cc(-c4c(O)cc(O)c5c4C[C@@H](C)N[C@@H]5C)c4cc(C)cc(OC)c4c3O)c(O)c3c(OC)cc(C)cc23)c2c1C(C)=N[C@H](C)C2"
  EC50 [µM]: 2

Hey, can you go through the list below and give me EC50 for every item?
1. COc1cc(C)cc2c(-c3c(O)cc(O)c4c3C[C@H](C)N(C)[C@@H]4C)cc(-c3cc(-c4c(O)cc(O)c5c4C[C@@H](C)N[C@@H]5C)c4cc(C)cc(OC)c4c3O)c(O)c12
2. COc1cc(O)c(-c2cc(-c3cc(-c4c(O)cc(O)c5c4C[C@@H](C)N[C@@H]5C)c4cc(C)cc(OC)c4c3O)c(O)c3c(OC)cc(C)cc23)c2c1[C@@H](C)N[C@H](C)C2

1: 4; 2: 3
